Exercise: state measured logP for each of the compounds provided.
EXPERIMENTAL_PROTOCOL: logP determination by HPLC on a reversed-phase column (C18), EEC Directive 79/831 Annex V.A8
Format: physicochemical
ASSAY_CONTEXT: HPLC on reversed-phase column (C18), acetonitrile/water with formic acid, EEC Directive 79/831 Annex V.A8
Give bare numbers.

These recorded examples may help you get a feel for the data.
{"columns": ["COMPOUND", "logP"],
 "data": [
  ["Cn1nc(C(F)(F)C(F)(F)F)c(C(F)(F)F)c1-n1cc(-c2ccc(Cl)c(C(=O)NC3CC3)c2)c(N)n1", 3.35],
  ["Cn1nc(C(F)(F)C(F)(F)F)c(C(F)(F)F)c1-n1cc(-c2ccc(Cl)c(C(=O)NS(C)(=O)=O)c2)cn1", 3.58],
  ["Cc1nn(-c2c(C(F)(F)F)c(C(F)(F)C(F)(F)F)nn2C)cc1-c1ccc(Cl)c(C(=O)NC2CC2)c1", 3.97],
  ["CC(NC(=O)c1cc(-c2cnn(-c3c(C(F)(F)F)c(C(F)(F)C(F)(F)F)nn3C)c2)ccc1Cl)C(F)(F)F (centres unmarked)", 4.23],
  ["Cn1nc(C(F)(F)C(F)(F)F)c(C(F)(F)F)c1-n1cc(-c2cccc(C(=O)NCc3cccs3)c2)cn1", 4.20]
]}

// each listed compound needs a value for logP
1. Cn1nc(C(F)(F)C(F)(F)F)c(C(F)(F)F)c1-n1cc(-c2ccc(Br)c(C(=O)NC3(C#N)CC3)c2)cn1
2. Cn1nc(C(F)(F)F)c(C=NO)c1-n1cc(-c2ccc(Cl)c(C(=O)NC3CC3)c2)cn1 (mixture of isomers)
3. O=C(NC1CC1)c1cc(-c2cnn(-c3c(C(F)(F)F)c(C(F)(F)C(F)(F)F)nn3-c3ccc([N+](=O)[O-])cc3)c2)ccc1Cl

Response:
1: 3.74; 2: 2.47; 3: 4.54

Batch lookup, logP per entry.
1. Cn1nc(C(F)(F)C(F)(F)F)c(C(F)(F)F)c1-n1cc(-c2ccc(Cl)c(C(=O)NC3CS(=O)(=O)C3)c2)cn1
2. Cn1nc(C(F)(F)C(F)(F)F)c(C(F)(F)F)c1-n1cc(-c2cccc(C(=O)NC3(C#N)CC3)c2)cn1
3. COc1ccc(-c2cnn(-c3c(C(F)(F)F)c(C(F)(F)C(F)(F)F)nn3C)c2)cc1C(=O)NC1CC1
4. Cn1nc(C(F)(F)C(F)(F)F)c(C(F)(F)F)c1-n1cc(-c2cc(F)c(Cl)c(C(=O)NC3CC3)c2)cn1
5. CSc1ccc(-c2cnn(-c3c(C(F)(F)F)c(C(F)(F)C(F)(F)F)nn3C)c2)cc1C(=O)NC1CC1

Response:
3.37
3.61
3.86
3.90
3.81

Prompt: Could you tell me which logP is on file for Cn1nc(C(F)(F)C(F)(F)F)c(C(F)(F)F)c1-n1cc(-c2ccc([N+](=O)[O-])c(C(=O)NC3(C#N)CC3)c2)cn1 ?
Response: 3.48

---

System: adult cat fleas (Ctenocephalides felis)
EXPERIMENTAL_PROTOCOL: Ctenocephalides felis in vitro contact test with adult cat fleas (T1)
ASSAY_CONTEXT: application rate 5 μg/cm^2; after 48 h
I'd appreciate it if you could supply efficacy (dead or moribund fleas) values for the items below.
Numbers only, in %.

Use these answered entries as a reference point.
{"columns": ["COMPOUND", "ASSAY_ENDPOINT", "NUMERIC_VALUE"],
 "data": [
  ["Cn1nc(C(F)(F)C(F)(F)F)c(C(F)(F)F)c1-n1cc(-c2ccc(F)c(C(=O)NC3(C#N)CC3)c2)cn1 [Ic-36]", "efficacy (dead or moribund fleas)", 100],
  ["Cn1nc(C(F)(F)C(F)(F)F)c(C(F)(F)F)c1-n1cc(-c2ccc(Br)c(C(=O)NC3(C#N)CC3)c2)cn1 [Ic-34]", "efficacy (dead or moribund fleas)", 100],
  ["Cn1nc(C(F)(F)C(F)(F)F)c(C(F)(F)F)c1-n1cc(-c2ccc(Cl)c(C(=O)NCc3ncc[nH]3)c2)cn1 [Ic-146]", "efficacy (dead or moribund fleas)", 80],
  ["Cc1coc(NC(=O)c2cc(-c3cnn(-c4c(C(F)(F)F)c(C(F)(F)C(F)(F)F)nn4C)c3)ccc2Cl)n1 [Ic-160]", "efficacy (dead or moribund fleas)", 100],
  ["Cn1nc(C(F)(F)C(F)(F)F)c(C(F)(F)F)c1-n1cc(-c2cc(Cl)c(Cl)c(C(=O)NC3(C#N)CC3)c2)cn1 [Ic-95]", "efficacy (dead or moribund fleas)", 100],
  ["Cn1nc(C(F)(F)C(F)(F)F)c(C(F)(F)F)c1-n1cc(-c2ccc(Cl)c(C(=O)NCC#N)c2)cn1 [Ic-147]", "efficacy (dead or moribund fleas)", 100]
]}

Please find the next compound below.
Prompt: Look up efficacy (dead or moribund fleas) for this compound: C=C=CCNC(=O)c1cc(-c2cnn(-c3c(C(F)(F)F)c(C(F)(F)C(F)(F)F)nn3C)c2)ccc1Cl [Ic-111]
Response: 100

---

What efficacy (laying of fertile eggs) was measured for each of the following?
Test system: cattle ticks (Boophilus microplus) Parkhurst strain, SP-resistant
EXPERIMENTAL_PROTOCOL: Boophilus microplus dip test (BOOPMI Dip)
Assay type: in vivo
ASSAY_CONTEXT: application rate 100 ppm, assessed after 7 days
Give bare numbers, in %.

{"columns": ["SMILES_DATA", "TARGET_SYSTEM", "NUMERIC_VALUE"],
 "data": [
  ["Cc1cc(-c2cnn(-c3c(C(F)(F)F)c(C(F)(F)C(F)(F)F)nn3C)c2)cc(C(=O)NC2(C#N)CC2)c1Cl", "cattle ticks (Boophilus microplus) Parkhurst strain, SP-resistant", 100],
  ["Cn1nc(C(F)(F)F)c(CF)c1-n1cc(-c2ccc(Cl)c(C(=O)NC3CC3)c2)cn1", "cattle ticks (Boophilus microplus) Parkhurst strain, SP-resistant", 90],
  ["Cn1nc(C(F)(F)C(F)(F)F)c(C(F)(F)F)c1-n1ccc(-c2ccc(Cl)c(C(=O)NC3(C#N)CC3)c2)c1", "cattle ticks (Boophilus microplus) Parkhurst strain, SP-resistant", 100],
  ["Cn1nc(C(F)(F)C(F)(F)F)c(C(F)(F)F)c1-n1ccc(-c2ccc(Cl)c(C(=O)NC3CC3)c2)c1", "cattle ticks (Boophilus microplus) Parkhurst strain, SP-resistant", 100],
  ["Cn1nc(C(F)(F)C(F)(F)F)c(C(F)(F)F)c1-n1cc(-c2cc(C(=O)NC3CC3)c(F)cc2Cl)cn1", "cattle ticks (Boophilus microplus) Parkhurst strain, SP-resistant", 100],
  ["COc1ncc(-c2cnn(-c3c(C(F)(F)F)c(C(F)(F)C(F)(F)F)nn3C)c2)cc1C(=O)NC1CC1", "cattle ticks (Boophilus microplus) Parkhurst strain, SP-resistant", 100],
  ["Cn1nc(C(F)(F)C(F)(F)F)c(C(F)(F)F)c1-n1cc(-c2ccc(Cl)c(C(=O)NC3(C(N)=O)CC3)c2)cn1", "cattle ticks (Boophilus microplus) Parkhurst strain, SP-resistant", 80],
  ["Cn1nc(C(F)(F)C(F)(F)F)c(C(F)(F)F)c1-n1cc(-c2ccc(Cl)c(C(=O)N[C@@H]3CCOC3)c2)cn1", "cattle ticks (Boophilus microplus) Parkhurst strain, SP-resistant", 100],
  ["Cn1nc(C(F)(F)C(F)(F)F)c(C(F)(F)F)c1-n1cc(-c2cc(Cl)c(Cl)c(C(=O)NC3CC3)c2)cn1", "cattle ticks (Boophilus microplus) Parkhurst strain, SP-resistant", 100],
  ["Cn1nc(C(F)(F)C(F)(F)F)c(C(F)(F)F)c1-n1cc(-c2ccc(F)c(C(=O)NC3(C#N)CC3)c2)cn1", "cattle ticks (Boophilus microplus) Parkhurst strain, SP-resistant", 100]
]}

For every record below, what is its efficacy (laying of fertile eggs)?
1. Cn1nc(C(F)(F)C(F)(F)F)c(C(F)(F)F)c1-n1cnc(-c2ccc(Cl)c(C(=O)NC3CC3)c2)c1
2. Cn1nc(C(F)(F)C(F)(F)F)c(C(F)(F)F)c1-n1cc(-c2ccc(Cl)c(C(=O)NCC3CC3)c2)cn1

Response:
[100, 100]

---

EXPERIMENTAL_PROTOCOL: logP determination by HPLC on a reversed-phase column (C18), EEC Directive 79/831 Annex V.A8
Assay type: physicochemical
ASSAY_CONTEXT: HPLC on reversed-phase column (C18), acetonitrile/water with formic acid, EEC Directive 79/831 Annex V.A8
ASSAY_ENDPOINT: logP
Numbers only.

List the reported logP of each compound below.
1. Cn1nc(C(F)(F)C(F)(F)F)c(C(F)(F)F)c1-n1cc(-c2ccc(Cl)c(C(=O)NCc3cccs3)c2)cn1 [Ic-10]
2. CC(C)NC(=O)c1cc(-c2cnn(-c3c(C(F)(F)F)c(C(F)(F)C(F)(F)F)nn3C)c2)ccc1Cl [Ic-113]
3. CCn1nc(C(F)(F)C(F)(F)F)c(C(F)(F)F)c1-n1cc(-c2ccc(Cl)c(C(=O)NC3CC3)c2)cn1 [Ic-16]

Response:
[4.40, 4.01, 4.14]

Prompt: Look at this compound and give its reported logP. Cc1c(-c2ccc(Cl)c(C(=O)NC3CC3)c2)c(C(F)(F)F)nn1-c1c(C(F)(F)F)c(C(F)(F)C(F)(F)F)nn1C [Ic-5]
Response: 4.60
